Ref: patent US20220119472A1

- targetDesc: T1, recombinant His6-tagged extracellular domain of human Clec4C (C-type lectin domain family 4, member C) (human, UniProt Q8WTT0 44-213)
- T1 construct: Same antigen for immunisation, panning and ELISA; also called His-Clec4C(EC); pMET7-SIgK-His-Clec4C(EC)
- T1 sequence: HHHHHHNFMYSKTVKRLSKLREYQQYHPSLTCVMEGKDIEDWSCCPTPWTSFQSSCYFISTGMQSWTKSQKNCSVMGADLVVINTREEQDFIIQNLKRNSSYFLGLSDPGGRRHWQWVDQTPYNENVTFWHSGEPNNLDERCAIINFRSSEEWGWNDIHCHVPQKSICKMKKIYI
- experimentSummary: ELISA, TG1 periplasmic extract on coated antigen
- Text: In total, 190 colonies from rounds 1 and 2 were randomly selected and analyzed by ELISA for the presence of antigen-specific VHH in their periplasmic extracts (ELISA using crude periplasmic extracts from TG1 cultures including soluble VHH). The antigen used for ELISA screening was the same as the one used for immunization, using uncoated blocked wells as negative control.
readoutType: ELISA coated
No unit in the answer, please; the number alone is enough.

Solved entries (count: 5):
2CL41 (VHH, pMECS VHH-HA-His6; TG1 periplasmic extract) VHH: QVQLQESGGGLVQAGGSLRLSCAASGSTFRHHAMAWFRQTPGKEREFVSAINDHGDRTKYLDSVRGRFTISRDNTDNMVYLQMSDLRTEDTAVYTCAAGPLVDYLETTPLVYTYWGQGTQVTVSS = 4
2CL84 (VHH, pMECS VHH-HA-His6; TG1 periplasmic extract) VHH: QVQLQESGGGSVQAGGSLRLSCAASGRTFSDYAMGWFRQAPGKEREFVATISKSGSSTDYADSAKGRFTISRDNAKKTVYLQINSLKTEDTAVYYCAARLSFDNTAFYTSAIRYSDWGQGTQVTVSS = 3.86
1CL54 (VHH, pMECS VHH-HA-His6; TG1 periplasmic extract) VHH: QVQLQESGGGLAQAGASLRLSCAGSGNNFEHYAVAWFRQDAPGKERDFVAAIRDYGDRTRYDDSVKGRFTISRDNAKSMVYLEMNNLKPKDAAVYYCAAGPLNDYLEVTPLVYTYWGQGTQVTVSS = 1.88
2CL16 (VHH, pMECS VHH-HA-His6; TG1 periplasmic extract) VHH: QVQLQESGGGLVQPGGSLRLSCAASGDTFSNYAMGWFRQAPGKAREFVAAISRSAGSTYHVDSVKGRFTISRDNAMNTVYLQMNSLQPEDTAHYYCAARLTFNLIDYYTAETRYTYWGQGTQVTVSS = 2.03
1CL2 (VHH, pMECS VHH-HA-His6; TG1 periplasmic extract) VHH: QVQLQESGGGLVQAGDSLRLSCAASGDTFSMYAMGWFRQAPGKEREFVAAISRSGGSTDYRDSVKGRFTISRDNDLNAGYLQMNSLKPEDTAVYYCALRLTFSTTTAYTGELQYPYWGQGTQVTVSS = 3.74

Suppose we examine the binder 1CL48 (VHH, pMECS VHH-HA-His6; TG1 periplasmic extract) VHH: QVQLQESGGGLVQPGGSLRLSCVGSGSTFRHHAMAWFRQTAGKEREFVSAINNHGTKTRYSDSVRGRFTISRDNDENMVYLQMDNLRPEDTAVYSCAAGPLVDYLETVPVVYTYWGQGTQVTVSS ; what ELISA coated value has been reported?
3.85

Queued: 2CL87 (VHH, pMECS VHH-HA-His6; TG1 periplasmic extract) VHH: QVQLQESGGGLVQPGGSLRLSCAGSGSTFRHHAMAWFRQTPGKEREFVSAINDHGDRTKYTDSVRGRFTISRDNTDNMVYLQMSDLRPEDTAVYSCAAGPLVDYLETTPLVYTYWGQGTQVTVSS
1.62

Consider next the binder 2CL72 (VHH, pMECS VHH-HA-His6; TG1 periplasmic extract) VHH: QVQLQESGGGLVQPGGSLKLSCAASGSTFRHHAMAWFRQTPGKEREFVSAINDHGDRTKYLDSVRGRFTISRDNTDNMVYLQMSDLRPEDTAVYSCAAGPLVDYLETTPLVYTYWGQGTQVTVSS in the same way.
3.63

Now the binder 2CL29 (VHH, pMECS VHH-HA-His6; TG1 periplasmic extract) VHH: QVQLQESGGGLVQPGDSLRLSCTASERTFTNYAMAWFRQAPGKERDVLATISRSGSSTFYAESVKGRFTISRDNTKNTVYLQMNSLEPEDTAVYYCAARPLVPSEDPDNYNYWGQGTQVTVSS
2.24

What would you report for 2CL65 (VHH, pMECS VHH-HA-His6; TG1 periplasmic extract) VHH: QVQLQESGGGLVQPGGSLRLSCAASGRIFSINAMGWYRQAPGKQRELVAVISRSGISNYVDSVKGRFTISRDNAKNTVYLQMNSLNPEDTADYYCNADVLLTFNKREDSWGQGTQVTVSS ?
1.72
